Cited source for all entries: paper PMC2955234

assay: Pharmacokinetics of sorafenib in plasma; assay type: in vivo; conditions: human, oral, 400 mg, t 1/2, Cohort 1, cycle 1, day 19, 400 mg bid (n = 3), geometric mean (% CV)
Quantity Measured: half-life (h)
Answer with a number only, understood to be in h.

Item under review: CNC(=O)c1cc(Oc2ccc(NC(=O)Nc3ccc(Cl)c(C(F)(F)F)c3)cc2)ccn1 . Reported half-life? 20.4

----------
assay: Pharmacokinetics of sorafenib in plasma; assay type: in vivo; conditions: human, oral, 400 mg, C max, Cohort 1, cycle 1, day 19, 400 mg bid (n = 3), geometric mean (% CV)
Quantity Measured: Cmax (ng/mL)
Answer with a number only, understood to be in ng/mL.

Item under review: CNC(=O)c1cc(Oc2ccc(NC(=O)Nc3ccc(Cl)c(C(F)(F)F)c3)cc2)ccn1 [Sorafenib] . Reported Cmax? 4600

----------
test: Pharmacokinetics of sorafenib in plasma; assay type: in vivo; conditions: human, oral, 400 mg, C max, Cohort 2, cycle 2, day 19, 400 mg bid (n = 4), geometric mean (% CV)
Quantity Measured: Cmax

Item under review: CNC(=O)c1cc(Oc2ccc(NC(=O)Nc3ccc(Cl)c(C(F)(F)F)c3)cc2)ccn1 . Reported Cmax? 5900 ng/mL

----------
experiment: Pharmacokinetics of sorafenib in plasma; type: in vivo; conditions: human, oral, 400 mg, AUC0–12, Cohort 1, cycle 1, day 2, 400 mg sd (n = 6), geometric mean (% CV)
Quantity Measured: AUC(0-t) (ng·h/mL)
Answer with a number only, understood to be in ng·h/mL.

Item under review: CNC(=O)c1cc(Oc2ccc(NC(=O)Nc3ccc(Cl)c(C(F)(F)F)c3)cc2)ccn1 [Sorafenib] . Reported AUC(0-t)? 18200

----------
assay: Pharmacokinetics of sorafenib in plasma; assay type: in vivo; conditions: human, oral, 400 mg, C max, Cohort 2, cycle 1, day 19, 400 mg od (n = 7), geometric mean (% CV)
Quantity Measured: Cmax
Reply with the number and its unit after it.

Item under review: CNC(=O)c1cc(Oc2ccc(NC(=O)Nc3ccc(Cl)c(C(F)(F)F)c3)cc2)ccn1 . Reported Cmax? 3200 ng/mL

----------
assay: Pharmacokinetics of sorafenib in plasma; type: in vivo; settings: human, oral, 400 mg, C max, Cohort 2, cycle 1, day 2, 400 mg sd (n = 7), geometric mean (% CV)
Quantity Measured: Cmax (ng/mL)
Answer with a number only, understood to be in ng/mL.

Item under review: CNC(=O)c1cc(Oc2ccc(NC(=O)Nc3ccc(Cl)c(C(F)(F)F)c3)cc2)ccn1 . Reported Cmax? 1200

----------
test: Pharmacokinetics of sorafenib in plasma; format: in vivo; details: human, oral, 400 mg, mean t 1/2, on day 19, across cohorts and cycles
Quantity Measured: half-life

Item under review: CNC(=O)c1cc(Oc2ccc(NC(=O)Nc3ccc(Cl)c(C(F)(F)F)c3)cc2)ccn1 . Reported half-life? 20.4 to 26.8 h

----------
experiment: Pharmacokinetics of sorafenib in plasma; format: in vivo; conditions: human, oral, 400 mg, t 1/2, Cohort 2, cycle 1, day 19, 400 mg od (n = 7), geometric mean (% CV)
Quantity Measured: half-life (h)
Answer with a number only, understood to be in h.

Item under review: CNC(=O)c1cc(Oc2ccc(NC(=O)Nc3ccc(Cl)c(C(F)(F)F)c3)cc2)ccn1 [Sorafenib] . Reported half-life? 26.8
